# Experimental target: T1, Human CD137 extracellular domain (ECD) (human)
# T1 construct: also called Human CD137 ECD; recombinant human CD137
# T1 sequence (chain, as listed by the source limits assumed): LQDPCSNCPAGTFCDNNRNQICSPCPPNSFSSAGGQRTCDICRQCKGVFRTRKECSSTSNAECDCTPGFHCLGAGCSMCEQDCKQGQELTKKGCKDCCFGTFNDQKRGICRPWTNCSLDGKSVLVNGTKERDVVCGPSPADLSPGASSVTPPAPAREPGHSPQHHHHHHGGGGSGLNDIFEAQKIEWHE
# Assay explanation: SPR Biacore 8K, Ab captured on anti-human Fc, CD137 as analyte, 37 C
pKd: −log10 of the molar value.
Rule: pKd of 7 or more gives True; anything lower gives False.

Please review the entries below; each comes with its answer.
Binder	Category
H0888L0581 (antibody, V domains shown, Dual-Ig with an Fc; also called DualAE02; dBBDu183H0888/dBBDu072L0581) VH: QVQLVESGGGLVQPGRSLRLSCAASGFKFSNVWMHWVRQAPGKGLEWVAQIKDKWNAYAAYYAPSVKGRFTISRDDSKNSIYLQMNSLKTEDTAVYYCHYIHYASASTLLPAFGIDAWGQGTTVTVSS VL: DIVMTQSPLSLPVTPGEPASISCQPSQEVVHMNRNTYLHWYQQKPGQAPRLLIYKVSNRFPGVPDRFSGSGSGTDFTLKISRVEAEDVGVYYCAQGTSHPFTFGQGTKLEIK	False
H1579L0581 (antibody, V domains shown, Dual-Ig with an Fc; also called DualAE25; dBBDu183H1579/dBBDu072L0581) VH: QVQLVESGGGLVQPGRSLRLSCAASGFKFSHVWFHWVRQAPGKGLEWVAQIKDKYNAYAAYYAPSVKGRFTISRDDSKNSIYLQMNSLKTEDTAVYYCHYVHYASASTLLPAFGVDAWGQGTTVTVSS VL: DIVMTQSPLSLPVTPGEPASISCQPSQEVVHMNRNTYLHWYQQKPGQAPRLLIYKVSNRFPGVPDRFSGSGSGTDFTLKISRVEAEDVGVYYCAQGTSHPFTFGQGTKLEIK	False
H1572L0581 (antibody, V domains shown, Dual-Ig with an Fc; also called DualAE26; dBBDu183H1572/dBBDu072L0581) VH: QVQLVESGGGLVQPGRSLRLSCAASGFKFSNVWFHWVRQAPGKGLEWVAQIKDKYNAYAAYYAPSVKGRFTISRDDSKNSIYLQMNSLKTEDTAVYYCHYVHYASASTLLPAEGVDAWGQGTTVTVSS VL: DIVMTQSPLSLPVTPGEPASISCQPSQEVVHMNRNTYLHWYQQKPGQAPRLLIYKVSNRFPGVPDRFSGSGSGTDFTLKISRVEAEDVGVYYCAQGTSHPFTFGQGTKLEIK	True
H1595L0581 (antibody, V domains shown, Dual-Ig with an Fc; also called DualAE24; dBBDu183H1595/dBBDu072L0581) VH: QVQLVESGGGLVQPGRSLRLSCAASGFKFSNTWMHWVRQAPGKGLEWVAQIKDKYNAYAAYYAPSVKGRFTISRDDSKNSIYLQMNSLKTEDTAVYYCHYIHYASASTLLPAFGVDAWGQGTTVTVSS VL: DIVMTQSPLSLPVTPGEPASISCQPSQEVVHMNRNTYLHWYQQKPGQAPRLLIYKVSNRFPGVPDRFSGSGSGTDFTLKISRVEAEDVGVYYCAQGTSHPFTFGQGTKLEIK	False

Attention now turns to another entry.
(Q) Has H1644L0939 (antibody, V domains shown, Dual-Ig with an Fc; also called DualAE16; dBBDu183H1644/dBBDu072L0939) VH: QVQLVESGGGLVQPGRSLRLSCAASGFVFSNVWFHWVRQAPGKGLEWVAQIKDYYNAYAAYYAPSVKGRFTISRDDSKNSIYLQMNSLKTEDTAVYYCHYVHYASASTLLPAEGVDAWGQGTTVTVSS VL: DIVMTQSPLSLPVTPGEPASISCQPSQEVVHMNRNTYLHWYQQKPGQAPRLLIYKVSNVFPGVPDRFSGSGSGTDFTLKISRVEAEDVGVYYCAQGTHHPFTFGQGTKLEIK a recorded pKd greater than or equal to 7?
(A) True
